Molecular target: T1, eukaryotically produced human IL-6 (Homo sapiens, UniProt P05231)
T1 construct: purchased Humanzyme HZ-1044; host or cells: Human Embryonic kidney cells
T1 sequence (P05231 30-212): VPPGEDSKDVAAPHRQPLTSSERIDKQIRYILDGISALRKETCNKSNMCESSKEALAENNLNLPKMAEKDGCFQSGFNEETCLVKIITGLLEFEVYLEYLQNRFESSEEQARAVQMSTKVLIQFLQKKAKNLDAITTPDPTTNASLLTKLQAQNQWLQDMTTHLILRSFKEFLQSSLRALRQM
Experiment: Surface plasmon resonance (Biacore), eukaryotically produced human IL-6 coated on CM5 chip
Format: binding
Details: euk; periplasmic fractions, 28A6 chain-shuffled
Reported kd is given for each of the following molecules.
Return type: number; implicit unit s⁻¹.

See these solved cases before continuing.
Recorded kd of 55A11d: 28A6 chain-shuffled Fab, periplasmic fraction (antibody, V domains shown) VH: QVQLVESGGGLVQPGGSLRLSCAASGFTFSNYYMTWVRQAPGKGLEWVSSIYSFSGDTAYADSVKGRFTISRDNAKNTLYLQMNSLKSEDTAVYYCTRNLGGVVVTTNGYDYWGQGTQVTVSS VL: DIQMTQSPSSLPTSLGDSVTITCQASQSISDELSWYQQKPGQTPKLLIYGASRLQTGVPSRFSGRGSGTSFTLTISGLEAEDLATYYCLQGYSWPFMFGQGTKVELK , please. 6.36e-05

Recorded kd of 48H1g2, R4: 28A6 chain-shuffled Fab, periplasmic fraction (antibody, V domains shown) VH: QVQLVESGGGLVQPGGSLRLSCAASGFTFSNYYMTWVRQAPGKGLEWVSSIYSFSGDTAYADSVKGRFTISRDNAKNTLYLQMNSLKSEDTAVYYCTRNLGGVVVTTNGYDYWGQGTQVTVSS VL: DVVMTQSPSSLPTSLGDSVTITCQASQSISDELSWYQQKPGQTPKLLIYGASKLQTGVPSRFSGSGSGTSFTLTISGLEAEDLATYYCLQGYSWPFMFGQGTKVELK , please. 6.8e-05

Moving on to another molecule below.
Recorded kd of 55C11f: 28A6 chain-shuffled Fab, periplasmic fraction (antibody, V domains shown) VH: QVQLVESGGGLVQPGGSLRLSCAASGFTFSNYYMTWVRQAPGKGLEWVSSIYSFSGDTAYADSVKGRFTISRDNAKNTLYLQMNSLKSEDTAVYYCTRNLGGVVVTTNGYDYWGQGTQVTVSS VL: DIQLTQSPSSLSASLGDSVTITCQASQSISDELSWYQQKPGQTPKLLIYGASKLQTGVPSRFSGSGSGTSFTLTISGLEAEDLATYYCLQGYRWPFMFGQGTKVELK , please. 6.47e-05
